target-system: glucan synthase (Candida albicans, UniProt O13428)
Construct: glucan synthase sources (2 μL permeabilized PM503 cells, or 3 μL membrane preparations from either PM503, BWP17, or ND158); endogenous in cells; host or cells: C. albicans strain BWP17, 100,000 g membrane fraction
Sequence (O13428 1-1897): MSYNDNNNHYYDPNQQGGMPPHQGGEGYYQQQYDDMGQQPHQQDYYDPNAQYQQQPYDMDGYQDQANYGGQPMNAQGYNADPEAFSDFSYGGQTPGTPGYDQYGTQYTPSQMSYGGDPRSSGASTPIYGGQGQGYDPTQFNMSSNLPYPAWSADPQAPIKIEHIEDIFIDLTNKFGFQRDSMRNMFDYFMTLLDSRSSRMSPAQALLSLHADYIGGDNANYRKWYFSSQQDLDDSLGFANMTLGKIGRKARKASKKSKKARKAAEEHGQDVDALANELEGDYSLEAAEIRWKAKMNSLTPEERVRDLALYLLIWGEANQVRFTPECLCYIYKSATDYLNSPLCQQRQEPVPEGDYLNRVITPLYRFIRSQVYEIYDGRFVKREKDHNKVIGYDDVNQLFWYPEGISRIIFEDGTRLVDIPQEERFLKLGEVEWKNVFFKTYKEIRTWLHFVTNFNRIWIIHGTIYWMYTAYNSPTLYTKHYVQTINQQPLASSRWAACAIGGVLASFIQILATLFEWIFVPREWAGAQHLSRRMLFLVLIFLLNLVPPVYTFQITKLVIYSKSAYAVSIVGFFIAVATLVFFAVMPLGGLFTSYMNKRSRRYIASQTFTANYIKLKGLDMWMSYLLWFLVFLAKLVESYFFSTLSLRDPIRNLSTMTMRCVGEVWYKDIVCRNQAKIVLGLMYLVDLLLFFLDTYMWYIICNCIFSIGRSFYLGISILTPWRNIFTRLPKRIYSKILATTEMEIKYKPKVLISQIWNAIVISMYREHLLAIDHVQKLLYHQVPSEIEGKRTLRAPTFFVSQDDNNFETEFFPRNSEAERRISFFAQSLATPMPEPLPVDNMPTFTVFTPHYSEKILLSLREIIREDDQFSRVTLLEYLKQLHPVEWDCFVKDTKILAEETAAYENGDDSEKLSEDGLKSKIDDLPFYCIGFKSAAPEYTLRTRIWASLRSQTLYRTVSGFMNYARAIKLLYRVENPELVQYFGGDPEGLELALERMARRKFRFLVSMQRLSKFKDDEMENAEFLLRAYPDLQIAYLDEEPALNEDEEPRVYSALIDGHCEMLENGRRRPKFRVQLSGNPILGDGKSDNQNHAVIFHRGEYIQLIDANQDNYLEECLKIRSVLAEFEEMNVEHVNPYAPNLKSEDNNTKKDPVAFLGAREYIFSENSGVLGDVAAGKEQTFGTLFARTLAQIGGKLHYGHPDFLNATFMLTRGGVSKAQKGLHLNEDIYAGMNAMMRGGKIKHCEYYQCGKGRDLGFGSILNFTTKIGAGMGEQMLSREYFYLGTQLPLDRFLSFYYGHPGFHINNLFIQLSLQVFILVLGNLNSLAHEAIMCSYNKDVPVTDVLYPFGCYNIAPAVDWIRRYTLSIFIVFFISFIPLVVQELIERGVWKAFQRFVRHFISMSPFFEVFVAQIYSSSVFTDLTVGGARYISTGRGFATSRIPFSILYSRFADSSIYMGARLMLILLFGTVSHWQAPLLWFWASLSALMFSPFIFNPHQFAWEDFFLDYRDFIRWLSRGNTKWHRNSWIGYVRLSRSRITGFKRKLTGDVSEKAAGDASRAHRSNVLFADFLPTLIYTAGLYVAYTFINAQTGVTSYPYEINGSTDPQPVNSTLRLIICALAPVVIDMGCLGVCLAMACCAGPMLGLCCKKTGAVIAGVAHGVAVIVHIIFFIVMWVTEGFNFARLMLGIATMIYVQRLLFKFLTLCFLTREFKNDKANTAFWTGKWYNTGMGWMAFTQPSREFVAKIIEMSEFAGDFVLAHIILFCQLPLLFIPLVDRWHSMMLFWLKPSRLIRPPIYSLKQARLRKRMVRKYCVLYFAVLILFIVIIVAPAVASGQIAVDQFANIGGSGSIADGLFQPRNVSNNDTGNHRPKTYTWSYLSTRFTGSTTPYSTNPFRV
Sequence (O42825 1-195 partner limits assumed): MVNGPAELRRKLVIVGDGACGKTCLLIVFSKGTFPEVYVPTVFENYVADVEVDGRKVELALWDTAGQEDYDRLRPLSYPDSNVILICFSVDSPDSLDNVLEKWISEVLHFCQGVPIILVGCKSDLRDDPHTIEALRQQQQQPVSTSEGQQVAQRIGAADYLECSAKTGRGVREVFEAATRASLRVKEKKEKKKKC
procedure-text: β(1,3) glucan synthase assay, C. albicans BWP17 membrane preparation (IC50)
Type: biochemical
experimental-setup: in vitro fungal enzyme activity assay, read-out: IC50 (μg/mL) Candida albicans (converted)
Exam item: assign True to entries whose IC50 is below 0.1 µM and False to entries at or above 0.1 µM. Note that a value of exactly 0.1 µM receives False.

These solved cases illustrate the format of a correct answer.
> print(dat)
                                   molecule  assigned.class
1  CC1(COc2c(N3CCN(S(=O)(=O)Cc4ccccc4)CC3)cnn(-c3cc(F)cc(F)c3)c2=O)CC1 [1529Z-191]            True
2  O=c1c(OC2Cc3ccccc3CC2F)c(N2CCN(S(=O)(=O)CF)CC2)cnn1-c1cc(F)cc(F)c1 (stereo not drawn) [1267Z]           False
3  CCC1(COc2c(N3CCN(S(=O)(=O)Cc4ccc(N)cc4)CC3)cnn(-c3cc(F)cc(F)c3)c2=O)CC1           False
4  CC1(COc2c(N3CCN(S(=O)(=O)Cc4cccc(N)c4)CC3)cnn(-c3cccc(Cl)c3)c2=O)CC1 [755Z]            True
5  CCOCCOc1c(N2CCN(Cc3c(Cl)cccc3Cl)CC2)cnn(-c2cc(Cl)cc(Cl)c2)c1=O [214Z]           False

For this molecule, is IC50 lower than 0.1 µM? COCCNc1cccc(CS(=O)(=O)N2CCN(c3cnn(-c4cccc(Cl)c4)c(=O)c3OCC3(C)CC3)CC2)c1 [1951Z] True

Param item: Nc1ccc(CS(=O)(=O)N2CCN(c3cnn(-c4cccc(Cl)c4)c(=O)c3OCC3(CF)CC3)CC2)cc1 [809Z] False

Param item: CC1(COc2c(N3CCN(S(=O)(=O)Cc4cccc(Cl)c4N)CC3)cnn(-c3cc(F)cc(F)c3)c2=O)CC1 [Compound 1574Zq] False

Param item: CCCCCCCCCC(=O)N1CCN(c2cnn(-c3ccccc3)c(=O)c2OCCCCCCC)CC1 [232Z] False

Param item: CC1(COc2c(N3CCN(S(=O)(=O)NCc4ccc(N)cc4)CC3)cnn(-c3cc(F)cc(F)c3)c2=O)CC1 [1634Z] False

Param item: CC1CC1COc1c(N2CCN(S(=O)(=O)Cc3ccccc3)CC2)cnn(-c2cc(F)cc(F)c2)c1=O (stereo not drawn) [1529Z-182] True

---

IC50 by entry:
target-system: glucan synthase (Candida albicans, UniProt O13428)
Construct: glucan synthase sources (2 μL permeabilized PM503 cells, or 3 μL membrane preparations from either PM503, BWP17, or ND158); endogenous in cells; host or cells: C. albicans strain BWP17, 100,000 g membrane fraction
procedure-text: β(1,3) glucan synthase assay, C. albicans BWP17 membrane preparation (IC50)
Format: biochemical
experimental-setup: in vitro fungal enzyme activity assay, read-out: IC50 (μg/mL) Candida albicans (converted)
Numeric answer only, unit nM assumed.

> print(dat)
                                   molecule                             target.system  unit.string  reported.measurement
1  N[C@@H](Cc1ccc(Cl)cc1)C(=O)N1CCN(c2cnn(-c3ccccc3)c(=O)c2Sc2ccc(F)cc2)CC1 [1Z]  glucan synthase (Candida albicans, UniProt O13428)           nM                 17700
2  O=c1c2c(cnn1-c1cc(F)cc(F)c1)N1CCN(CC1)S(=O)(=O)/C=C/CCCCCCCCO2 [2022Z]  glucan synthase (Candida albicans, UniProt O13428)           nM                   157
3  CC(C)S(=O)(=O)N1CCN(c2cnn(-c3cc(F)cc(F)c3)c(=O)c2Sc2ccccc2)CC1 [19Z]  glucan synthase (Candida albicans, UniProt O13428)           nM                  3360

So what does the record say about IC50 for N#Cc1cccc(-c2c(N3CCN(S(=O)(=O)Cc4ccccc4)CC3)cnn(-c3cc(F)cc(F)c3)c2=O)c1 [82Z] ? 822

---

target-system: glucan synthase (Candida albicans, UniProt O13428)
Construct: glucan synthase sources (2 μL permeabilized PM503 cells, or 3 μL membrane preparations from either PM503, BWP17, or ND158); endogenous in cells; host or cells: C. albicans strain BWP17, 100,000 g membrane fraction
procedure-text: β(1,3) glucan synthase assay, C. albicans BWP17 membrane preparation (IC50)
Assay type: biochemical
experimental-setup: in vitro fungal enzyme activity assay, read-out: IC50 (μg/mL) Candida albicans (converted)
assay-metric: IC50 (µM)
Numeric answer only, unit µM assumed.

Some solved entries appear below for comparison.
> print(dat)
                                   molecule  unit.string  reported.measurement
1  O=C(NCc1ccccc1)N1CCN(c2cnn(-c3cccc(Cl)c3)c(=O)c2OC2CCCC2)CC1 [204Z]           µM                  68.9
2  O=c1c(N2CCOCC2)c(N2CCN(S(=O)(=O)Cc3ccccc3)CC2)cnn1Cc1c(F)cccc1Cl [30Z]           µM                    16
3  CC(C)S(=O)(=O)N1CCN(c2cnn(-c3cccc(F)c3)c(=O)c2OC2CCCCC2)CC1 [402Z]           µM                 0.794

Pending molecule:
So what does the record say about IC50 for CC1(COc2c(N3CCN(S(=O)(=O)Cc4ccc(N)c(Cl)c4)CC3)cnn(-c3cc(F)cc(F)c3)c2=O)CC1 [Compound 1574Zo] ? 0.069

---

target-system: glucan synthase (Saccharomyces cerevisiae, UniProt P38631)
Construct: glucan synthase sources (2 μL permeabilized PM503 cells, or 3 μL membrane preparations from either PM503, BWP17, or ND158); endogenous in cells
Sequence (P06780 1-206): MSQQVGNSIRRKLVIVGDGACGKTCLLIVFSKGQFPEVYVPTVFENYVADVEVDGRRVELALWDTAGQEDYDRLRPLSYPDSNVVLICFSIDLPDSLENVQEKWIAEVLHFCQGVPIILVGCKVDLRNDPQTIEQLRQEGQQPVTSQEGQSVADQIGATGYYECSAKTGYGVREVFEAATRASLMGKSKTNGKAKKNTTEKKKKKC
Sequence (P38631 whole entry): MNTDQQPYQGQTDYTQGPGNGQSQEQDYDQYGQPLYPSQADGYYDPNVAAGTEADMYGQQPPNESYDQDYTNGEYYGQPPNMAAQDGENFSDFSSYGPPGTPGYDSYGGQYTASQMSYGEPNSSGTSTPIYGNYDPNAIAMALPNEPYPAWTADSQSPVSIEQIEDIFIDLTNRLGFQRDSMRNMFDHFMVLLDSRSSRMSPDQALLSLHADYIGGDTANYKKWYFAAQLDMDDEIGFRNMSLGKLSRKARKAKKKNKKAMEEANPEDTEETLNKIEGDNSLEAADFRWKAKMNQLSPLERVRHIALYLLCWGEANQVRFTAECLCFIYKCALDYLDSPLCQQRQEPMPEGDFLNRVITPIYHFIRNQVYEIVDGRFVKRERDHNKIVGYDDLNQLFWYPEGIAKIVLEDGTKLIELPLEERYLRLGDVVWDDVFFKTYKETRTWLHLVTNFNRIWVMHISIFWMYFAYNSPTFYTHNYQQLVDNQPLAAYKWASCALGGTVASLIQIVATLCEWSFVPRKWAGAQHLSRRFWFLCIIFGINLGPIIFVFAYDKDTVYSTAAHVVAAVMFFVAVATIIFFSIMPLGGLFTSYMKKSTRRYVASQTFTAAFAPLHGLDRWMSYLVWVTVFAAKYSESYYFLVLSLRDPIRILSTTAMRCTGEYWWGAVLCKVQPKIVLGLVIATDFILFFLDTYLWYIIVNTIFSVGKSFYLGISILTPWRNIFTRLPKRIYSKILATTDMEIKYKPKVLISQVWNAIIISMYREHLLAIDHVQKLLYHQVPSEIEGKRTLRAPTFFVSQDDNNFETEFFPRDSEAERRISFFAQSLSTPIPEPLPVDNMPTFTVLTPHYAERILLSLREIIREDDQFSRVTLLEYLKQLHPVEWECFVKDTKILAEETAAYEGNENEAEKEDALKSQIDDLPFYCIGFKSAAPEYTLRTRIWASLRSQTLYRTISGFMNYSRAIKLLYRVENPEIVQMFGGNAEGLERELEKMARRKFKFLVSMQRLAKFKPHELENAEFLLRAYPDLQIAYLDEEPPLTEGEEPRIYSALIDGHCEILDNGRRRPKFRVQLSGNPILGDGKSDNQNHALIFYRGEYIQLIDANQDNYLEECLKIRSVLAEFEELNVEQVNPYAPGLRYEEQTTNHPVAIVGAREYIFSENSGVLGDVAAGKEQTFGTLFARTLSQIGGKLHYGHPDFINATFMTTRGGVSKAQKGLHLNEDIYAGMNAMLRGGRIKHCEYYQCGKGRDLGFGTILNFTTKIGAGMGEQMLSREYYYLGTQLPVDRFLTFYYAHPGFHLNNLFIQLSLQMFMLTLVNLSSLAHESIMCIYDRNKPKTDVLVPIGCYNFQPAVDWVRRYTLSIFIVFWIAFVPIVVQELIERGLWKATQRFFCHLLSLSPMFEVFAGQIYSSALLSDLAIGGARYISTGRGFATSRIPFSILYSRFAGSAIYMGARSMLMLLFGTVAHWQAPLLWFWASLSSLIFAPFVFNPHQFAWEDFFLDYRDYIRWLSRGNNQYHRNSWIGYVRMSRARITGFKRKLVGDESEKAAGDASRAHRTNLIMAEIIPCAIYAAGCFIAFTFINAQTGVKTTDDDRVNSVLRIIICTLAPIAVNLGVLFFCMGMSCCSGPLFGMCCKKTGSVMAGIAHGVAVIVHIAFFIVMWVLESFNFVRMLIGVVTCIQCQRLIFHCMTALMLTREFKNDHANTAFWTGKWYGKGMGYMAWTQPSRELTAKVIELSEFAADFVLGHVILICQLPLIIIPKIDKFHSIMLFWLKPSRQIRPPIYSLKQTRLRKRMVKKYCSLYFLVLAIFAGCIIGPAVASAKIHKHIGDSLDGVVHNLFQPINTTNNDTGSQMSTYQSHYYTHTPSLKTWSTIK
procedure-text: β(1,3) glucan synthase assay, S. cerevisiae PM503 permeabilized cells or membrane preparation (IC50)
assay-metric: IC50 (nM)
Numeric answer only, unit nM assumed.

> print(dat)
                                   compound  reported.measurement
1  CC(C)S(=O)(=O)N1CCN(c2cnn(-c3cccc(F)c3)c(=O)c2OC2CCCCC2)CC1 [402Z]                   153
2  CC(C)S(=O)(=O)N1CCN(c2cnn(-c3cc(F)cc(F)c3)c(=O)c2Sc2ccccc2)CC1 [19Z]                   160
3  CC(C)NC(=O)N1CCN(c2cnn(-c3cccc(F)c3)c(=O)c2OC2Cc3ccccc3C2)CC1 [197Z]                   159
4  Cc1ccc(CNS(=O)(=O)N2CCN(c3cnn(-c4cc(F)cc(F)c4)c(=O)c3OC3CCC(F)C3)CC2)cc1N (centres unmarked) [1715Z]                   169

Write down the reported IC50 of CNc1cccc(CS(=O)(=O)N2CCN(c3cnn(-c4cccc(Cl)c4)c(=O)c3OCC3(C)CC3)CC2)c1 [1969Z] , test system: glucan synthase (Saccharomyces cerevisiae, UniProt P38631). 215

---

IC50 by entry:
target-system: glucan synthase (Candida albicans)
Construct: glucan synthase sources (2 μL permeabilized PM503 cells, or 3 μL membrane preparations from either PM503, BWP17, or ND158); endogenous in cells; host or cells: C. albicans strain BWP17, 100,000 g membrane fraction
procedure-text: β(1,3) glucan synthase assay, C. albicans BWP17 membrane preparation (IC50)
Assay type: biochemical
experimental-setup: in vitro fungal enzyme activity assay, read-out: IC50 (μg/mL) Candida albicans (converted)
Numeric answer only, unit nM assumed.

Some solved entries appear below for comparison.
> print(dat)
                                   molecule  unit.string  reported.measurement
1  CC1(COc2c(N3CCN(S(=O)(=O)Cc4ccccc4)CC3)cnn(-c3cccc(Cl)c3)c2=O)CC1 [1035Z]           nM                  56.7
2  Cc1ccc(Cc2c(N3CCN(S(=O)(=O)C(C)C)CC3)cnn(-c3cc(F)cc(F)c3)c2=O)cc1 [119Z]           nM                  1610

Write down the reported IC50 of Nc1ccc(CS(=O)(=O)N2CCN(c3cnn(-c4cccc(Cl)c4)c(=O)c3OCC3CCC3)CC2)cc1 [1529Z-73] , test system: glucan synthase (Candida albicans). 349

Param item: O=c1c(OC2CCCC2)c(N2CCN(S(=O)(=O)NCc3ccccc3)CC2)cnn1-c1cc(F)cc(F)c1 [1629Z] 91.6

Param item: CC(Oc1c(N2CCN(S(=O)(=O)Cc3cccc(N)c3)CC2)cnn(-c2cc(F)cc(F)c2)c1=O)C(C)(C)C (stereo not drawn) 2850

Param item: O=c1c(Nc2ccc(F)cc2)c(N2CCN(S(=O)(=O)Cc3ccccc3)CC2)cnn1-c1cccc(Cl)c1 [47Z] 415
